- measurement_notes: Clearance in Sprague-Dawley rat at 1 mg/kg, iv
- Format: ADME, organism-based
- condition_description: in vivo

[
  {
    "item_smiles": "Cn1cc(-c2n[nH]c3ccc(NCc4cc(F)ccc4S(C)(=O)=O)cc23)cn1",
    "clearance": "73.3 mL/min/kg"
  }
]

----------
- measurement_notes: Protein binding in Sprague-Dawley rat plasma
- Format: ADME, cell-free
- condition_description: read-out: PPB (converted)

[
  {
    "item_smiles": "Cn1cc(-c2n[nH]c3ccc(NCc4cc(F)ccc4S(C)(=O)=O)cc23)cn1",
    "fraction unbound": 0.134
  }
]

----------
- measurement_notes: Cmax in Sprague-Dawley rat at 5 mg/kg, po
- Format: ADME, organism-based
- Parameters: dose 5 mg/kg, route oral
- condition_description: in vivo
reported_property: Cmax (nM)

[
  {
    "item_smiles": "Cn1cc(-c2n[nH]c3ccc(NCc4cc(F)ccc4S(C)(=O)=O)cc23)cn1",
    "reported_property": "Cmax",
    "test_value": 161
  }
]

----------
- measurement_notes: Intrinsic clearance in human liver microsomes
- Assay type: ADME, Microsome
- condition_description: read-out: CLH
# CLint scaled per entry

[
  {
    "item_smiles": "CC(C)(Nc1ccc2[nH]nc(-c3ccc(N4CCNCC4)nc3)c2c1)c1ccccc1",
    "CLint scaled, mL/min/kg": 1740
  },
  {
    "item_smiles": "COc1cccc(-c2n[nH]c3ccc(NCc4ccccc4NS(C)(=O)=O)cc23)n1",
    "CLint scaled, mL/min/kg": 833
  },
  {
    "item_smiles": "COc1ccc(-c2n[nH]c3ccc(NCc4ccccc4NS(C)(=O)=O)cc23)cn1",
    "CLint scaled, mL/min/kg": 359
  },
  {
    "item_smiles": "CS(=O)(=O)c1ccccc1CNc1ccc2[nH]nc(-c3ccc(N4CCNCC4)nc3)c2c1",
    "CLint scaled, mL/min/kg": 74
  },
  {
    "item_smiles": "CS(=O)(=O)Nc1ccccc1CNc1ccc2[nH]nc(-c3ccc(OC4CCNCC4)nc3)c2c1",
    "CLint scaled, mL/min/kg": 323
  },
  {
    "item_smiles": "c1ccc(CNc2ccc3[nH]nc(-c4ccc(N5CCNCC5)nc4)c3c2)cc1",
    "CLint scaled, mL/min/kg": 12
  }
]

----------
- measurement_notes: Protein binding in Sprague-Dawley rat brain
- Format: ADME, tissue-based
- condition_description: read-out: PB (converted)

[
  {
    "item_smiles": "Cn1cc(-c2n[nH]c3ccc(NCc4cc(F)ccc4S(C)(=O)=O)cc23)cn1",
    "fraction unbound": 0.038
  }
]

----------
- measurement_notes: Solubility of test compound
- Format: physicochemical
reported_property: solubility (µM)

[
  {
    "item_smiles": "Cn1cc(-c2n[nH]c3ccc(NCc4cc(F)ccc4S(C)(=O)=O)cc23)cn1",
    "reported_property": "solubility",
    "test_value": 141
  },
  {
    "item_smiles": "Cn1ccc(-c2n[nH]c3ccc(NCc4cc(F)ccc4S(C)(=O)=O)cc23)n1",
    "reported_property": "solubility",
    "test_value": 80.1
  },
  {
    "item_smiles": "CS(=O)(=O)c1ccc(F)cc1CNc1ccc2[nH]nc(-c3ccc(N4CCNCC4)nc3)c2c1",
    "reported_property": "solubility",
    "test_value": 38.7
  },
  {
    "item_smiles": "CS(=O)(=O)c1ccc(F)cc1CNc1ccc2[nH]nc(-c3cccnc3)c2c1",
    "reported_property": "solubility",
    "test_value": 23
  },
  {
    "item_smiles": "CS(=O)(=O)c1ccc(F)cc1CNc1ccc2[nH]nc(-c3ccccn3)c2c1",
    "reported_property": "solubility",
    "test_value": 15.2
  }
]

----------
- measurement_notes: Ratio of drug level in brain to plasma of Sprague-Dawley rat at 2.5 mg/kg, ip
- Assay type: ADME, organism-based
- condition_description: read-out: BPR

[
  {
    "item_smiles": "Cn1cc(-c2n[nH]c3ccc(NCc4cc(F)ccc4S(C)(=O)=O)cc23)cn1",
    "Kp": 0.03
  }
]

----------
- measurement_notes: Intrinsic clearance in human liver microsomes
- Assay type: ADME, Microsome
- condition_description: read-out: CLH
Mark each entry Yes if its CLint scaled sits below 200 mL/min/kg, and No for all others.

[
  {
    "item_smiles": "COc1cncc(-c2n[nH]c3ccc(NCc4ccccc4NS(C)(=O)=O)cc23)c1",
    "class_assignment": "No"
  },
  {
    "item_smiles": "CS(=O)(=O)Nc1ccccc1CNc1ccc2[nH]nc(-c3ccc(NC4CCNCC4)nc3)c2c1",
    "class_assignment": "Yes"
  },
  {
    "item_smiles": "Cn1cc(-c2n[nH]c3ccc(NCc4cc(F)ccc4S(C)(=O)=O)cc23)cn1",
    "class_assignment": "Yes"
  },
  {
    "item_smiles": "CS(=O)(=O)c1ccc(F)cc1CNc1ccc2[nH]nc(-c3cccnc3)c2c1",
    "class_assignment": "No"
  },
  {
    "item_smiles": "c1ccc(CCc2ccc3[nH]nc(-c4ccc(N5CCNCC5)nc4)c3c2)cc1",
    "class_assignment": "No"
  },
  {
    "item_smiles": "c1ccc(COc2ccc3[nH]nc(-c4ccc(N5CCNCC5)nc4)c3c2)cc1",
    "class_assignment": "No"
  },
  {
    "item_smiles": "Cn1ccc(-c2n[nH]c3ccc(NCc4cc(F)ccc4S(C)(=O)=O)cc23)n1",
    "class_assignment": "Yes"
  },
  {
    "item_smiles": "CS(=O)(=O)c1ccc(F)cc1CNc1ccc2[nH]nc(-c3ccccn3)c2c1",
    "class_assignment": "No"
  },
  {
    "item_smiles": "CN(Cc1ccccc1)c1ccc2[nH]nc(-c3ccc(N4CCNCC4)nc3)c2c1",
    "class_assignment": "No"
  }
]

----------
- measurement_notes: Apparent permeability from apical to basolateral side in MDCK cells at 50 umol/L at pH 7.4 incubated for 30 mins by LC-MS/MS analysis
- Assay type: ADME, cell-based, Canis lupus familiaris
- condition_description: dog
Lab note: anything with Papp A→B at 0.5 h, 50 µM at or over 10 ×10⁻⁶ cm/s counts as Satisfied; the rest go in Not satisfied.

[
  {
    "item_smiles": "CN(Cc1ccccc1)c1ccc2[nH]nc(-c3ccc(N4CCNCC4)nc3)c2c1",
    "class_assignment": "Not satisfied"
  },
  {
    "item_smiles": "c1ccc(COc2ccc3[nH]nc(-c4ccc(N5CCNCC5)nc4)c3c2)cc1",
    "class_assignment": "Not satisfied"
  },
  {
    "item_smiles": "CS(=O)(=O)Nc1ccccc1CNc1ccc2[nH]nc(-c3ccc(N4CCNCC4)nc3)c2c1",
    "class_assignment": "Not satisfied"
  },
  {
    "item_smiles": "Cn1cc(-c2n[nH]c3ccc(NCc4cc(F)ccc4S(C)(=O)=O)cc23)cn1",
    "class_assignment": "Satisfied"
  },
  {
    "item_smiles": "CC(C)(Nc1ccc2[nH]nc(-c3ccc(N4CCNCC4)nc3)c2c1)c1ccccc1",
    "class_assignment": "Satisfied"
  },
  {
    "item_smiles": "CS(=O)(=O)c1ccccc1CNc1ccc2[nH]nc(-c3ccc(N4CCNCC4)nc3)c2c1",
    "class_assignment": "Satisfied"
  },
  {
    "item_smiles": "CS(=O)(=O)c1ccc(F)cc1CNc1ccc2[nH]nc(-c3cccnc3)c2c1",
    "class_assignment": "Satisfied"
  },
  {
    "item_smiles": "CS(=O)(=O)c1ccc(F)cc1CNc1ccc2[nH]nc(-c3ccccn3)c2c1",
    "class_assignment": "Satisfied"
  }
]

----------
- measurement_notes: Half life in Sprague-Dawley rat at 1 mg/kg, iv
- Type: ADME, organism-based
- condition_description: in vivo

[
  {
    "item_smiles": "Cn1cc(-c2n[nH]c3ccc(NCc4cc(F)ccc4S(C)(=O)=O)cc23)cn1",
    "half-life": "1.46 h"
  }
]

----------
- measurement_notes: Apparent permeability from apical to basolateral side in MDCK cells at 50 umol/L at pH 7.4 incubated for 30 mins by LC-MS/MS analysis
- Type: ADME, cell-based, Canis lupus familiaris
- condition_description: dog
# Papp A→B at 0.5 h, 50 µM per entry
reported_property: Papp A→B at 0.5 h, 50 µM (×10⁻⁶ cm/s)

[
  {
    "item_smiles": "c1ccc(CCc2ccc3[nH]nc(-c4ccc(N5CCNCC5)nc4)c3c2)cc1",
    "result_unit": "×10⁻⁶ cm/s",
    "test_value": 3.1
  },
  {
    "item_smiles": "c1ccc(CNc2ccc3[nH]nc(-c4ccc(N5CCNCC5)nc4)c3c2)cc1",
    "result_unit": "×10⁻⁶ cm/s",
    "test_value": 13
  },
  {
    "item_smiles": "CS(=O)(=O)Nc1ccccc1CNc1ccc2[nH]nc(-c3ccc(NC4CCNCC4)nc3)c2c1",
    "result_unit": "×10⁻⁶ cm/s",
    "test_value": 0.3
  },
  {
    "item_smiles": "CS(=O)(=O)Nc1ccccc1CNc1ccc2[nH]nc(-c3ccc(OC4CCNCC4)nc3)c2c1",
    "result_unit": "×10⁻⁶ cm/s",
    "test_value": 0.3
  },
  {
    "item_smiles": "Cn1ccc(-c2n[nH]c3ccc(NCc4cc(F)ccc4S(C)(=O)=O)cc23)n1",
    "result_unit": "×10⁻⁶ cm/s",
    "test_value": 34
  }
]
